- ASSAY_COMMENT: NCI Yeast Anticancer Drug Screen. Data for the sgs1 strain (AID 173);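 also: 0% = growth of vehicle-only control cultures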
- CONDITIONS_USED: S. cerevisiae sgs1 mutant, at 100.0 µM
The panel holds about 79,000 compounds, 15% with a hit somewhere; the sample as a whole holds those more often. Activity calls are given as the source filed them. Rule as the data show it: active = growth inhibition above about 70%; inactive = the rest.
Use one of these outcomes when replying: active, inactive

CC1=C(SCc2ccccc2)C(=O)c2ccccc2C1=O | active

stdin: Recorded test call requested for CCOC1=C/C(=N\Nc2ccc([N+](=O)[O-])cc2)CCC1
stdout: inactive

###

- ASSAY_COMMENT: NCI Yeast Anticancer Drug Screen. Data for the wt2 strain (AID 169);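 also: 0% = growth of vehicle-treated yeast cultures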
- CONDITIONS_USED: S. cerevisiae wt2 strain growth inhibition; at 1.2 µM; hits give high values
About 79,000 compounds went through this panel and 15% of them were active in at least one assay; those are over-represented in the sample as a whole. The source made the active and inactive calls. No stated cut-off is given here; in the data, active means growth inhibition above about 70%; inactive means the rest.
REPORTED_PROPERTY: growth inhibition

Known growth inhibition results, listed for orientation:
Nc1nc2ccc(NCc3ccc(C(=O)NC(CCC(=O)O)C(=O)O)cc3)cc2c(=O)[nH]1 (stereo unspecified) | -24% (inactive)
CN(C)c1nc(=Nc2cccc(Cl)c2)ss1 | 9% (inactive)
CC[N+]1(C)CCC(O)(c2ccc(OC)cc2)C(C(=O)c2ccc(OC)cc2)C1 (stereo unspecified) | -21% (inactive)
CCN(CC)CCOc1cc(C)c2cc(Cc3ccccc3)ccc2n1 | -1% (inactive)
COc1cc(/C=N/Nc2nnc3c4ccccc4c4ncccc4c3n2)cc(OC)c1OC | -5% (inactive)

Could you now look at the following compound, please?
stdin: growth inhibition for O=[N+]([O-])c1cc(Cl)cnc1Br ?
stdout: 0% (inactive)

###

Let's look at some molecules and their measured growth inhibition.
- ASSAY_COMMENT: NCI Yeast Anticancer Drug Screen. Data for the rad14 strain (AID 159);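 also: 0% = growth of vehicle-treated control cultures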
- CONDITIONS_USED: S. cerevisiae rad14 strain growth inhibition; at 11.0 µM; hits give high values
Compounds without any hit were thinned out: in the full panel of roughly 79,000, 15% have a hit.
Just the number in %, nothing appended.

CCOc1ccccc1N=Cc1c2ccccc2cc2ccccc12 | 98
Cc1c2cccc(Sc3ccccc3)c2c2c3c(cccc13)[S+](c1ccccc1)C2 (stereo unspecified) | 98

stdin: growth inhibition for CCCCN(CCCC)CCC(O)c1cc2c(Cl)cc(Cl)cc2c2cc(C(F)(F)F)ccc12 (stereo unspecified) ?
stdout: 98

###

- ASSAY_COMMENT: NCI Yeast Anticancer Drug Screen. Data for the bub3 strain (AID 167)
- CONDITIONS_USED: S. cerevisiae bub3 mutant strain, at 3.7 µM, hits give high values
Compounds without any hit were thinned out: in the full panel of roughly 79,000, 15% have a hit.
REPORTED_PROPERTY: growth inhibition (%)
Just the number in %, nothing appended.

Brc1ccccc1-c1ncc(-c2ccccc2)o1 | 6
Cc1ccc(S/C(=C\C(=O)O)c2ccccc2)cc1 | -4

stdin: growth inhibition for CCOC(=O)c1[nH]n(-c2ccccc2)c(=O)c1C=NC(=S)C(N)=S ?
stdout: -4

stdin: growth inhibition for COc1cc(C2SCC(=O)N2c2ccc(-c3ccc(-n4c(-c5ccccc5)nc5ccccc5c4=O)cc3)cc2)ccc1O (stereo unspecified) ?
stdout: 9

stdin: growth inhibition for O=[N+]([O-])c1cc[n+]([O-])cc1 ?
stdout: -8

stdin: growth inhibition for CC(C)(C)CC(C)(C)c1cc(O)c(O)c(CN2CCCCC2)c1 ?
stdout: 2

###

- ASSAY_COMMENT: NCI Yeast Anticancer Drug Screen. Data for the mec2-1 strain (AID 157)
- CONDITIONS_USED: S. cerevisiae mec2-1 strain, at 100.0 µM, hits give high values
This is part of a sample that, as a whole, favours compounds with a hit. Of some 79,000 tested, about 15% had one in any assay.
Let's look at some compounds and their measured growth inhibition.
Just the number in %, nothing appended.

Known growth inhibition results, listed for orientation:
Cc1ccc2c(c1)C1(SC(C)C(=O)N1c1ccc(Cl)cc1)C(=O)N2 (configuration not stated) | 99
CCC(C)(C)c1ccc(Oc2cccc(C(=O)O)c2)cc1 | 96
CCCC/C=C/C(C)(C(=O)OCC)C(=O)OCC | 25

stdin: growth inhibition for CCc1c[n+]([O-])c(C)cc1[N+](=O)[O-] ?
stdout: 92

stdin: growth inhibition for O=c1ccc(=O)n(-c2ccccc2)[nH]1 ?
stdout: 98

stdin: growth inhibition for O=[N+]([O-])c1ccc2c(c1)/C(=N/N=C1c3ccccc3Cc3ccccc31)c1cc([N+](=O)[O-])cc([N+](=O)[O-])c1-2 ?
stdout: 95

stdin: growth inhibition for Cc1ccc2nc(-c3cccc([N+](=O)[O-])c3)oc(=O)c2c1 ?
stdout: -70

stdin: growth inhibition for O=C1c2cccnc2C(=O)C2C3C=CC(C3)C12 (configuration not stated) ?
stdout: 99

stdin: growth inhibition for N#CC(C#N)=NNc1ccc(S(=O)(=O)O)cc1 ?
stdout: -28

stdin: growth inhibition for Cc1cc(NCCCCCCCCNc2cc(C)nc3cc(N)ccc23)c2ccc(N)cc2n1 ?
stdout: 96

stdin: growth inhibition for Cc1c2cc[n+](Cc3ccc(I)cc3)cc2c(C)c2c1[nH]c1ccccc12 ?
stdout: 95

stdin: growth inhibition for c1ccc2c(OCC3CO3)cccc2c1 (configuration not stated) ?
stdout: 91

###

- ASSAY_COMMENT: NCI Yeast Anticancer Drug Screen. Data for the wt1 strain (AID 149);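 also: 0% = growth of vehicle-treated wt1 cultures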
- CONDITIONS_USED: S. cerevisiae wt1 strain (SPY 50644) growth inhibition; at 1.2 µM; hits give high values
This is part of a sample that, as a whole, favours compounds with a hit. Of some 79,000 tested, about 15% had one in any assay.
REPORTED_PROPERTY: growth inhibition (%)
Just the number in %, nothing appended.

Known growth inhibition results, listed for orientation:
OCC(CO)C(c1cccc2ccccc12)c1cccc2ccccc12 | -5
CCOC(=O)CC1(C(=O)OCC)c2[nH]c3ccccc3c2CCN1Cc1ccccc1 (stereo unspecified) | -3
COc1ccc(C(=O)C(CN(C)C)CN(C)C)cc1 | -5

stdin: growth inhibition for CCCCCCCCCCCC1=NCCO1 ?
stdout: 1

stdin: growth inhibition for CC(C)(C)CC(C)(C)c1cc(O)c(O)c(CN2CCCCC2)c1 ?
stdout: 0

stdin: growth inhibition for O=C(/C=C(/c1ccccc1)N1CCCCC1)c1ccccc1 ?
stdout: -1

stdin: growth inhibition for CCN(CC)CCOc1cc(C)c2cc(Cc3ccccc3)ccc2n1 ?
stdout: 0

###

- ASSAY_COMMENT: NCI Yeast Anticancer Drug Screen. Data for the wt1 strain (AID 149);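 also: 0% = growth of vehicle-treated wt1 cultures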
- CONDITIONS_USED: S. cerevisiae wt1 strain (SPY 50644) growth inhibition; at 33.0 µM; hits give high values
Compounds without any hit were thinned out: in the full panel of roughly 79,000, 15% have a hit.
REPORTED_PROPERTY: growth inhibition (%)
Just the number in %, nothing appended.

CN(C)c1ccc(C2CC(C)(O)Oc3cc4c(cc32)OCO4)cc1 (stereo not given) | 1
Cc1ccccc1N=Cc1cc(Cl)ccc1O | 7
COC(=O)C1=C(C(=O)OC)C(C(=O)OC)C(C(=O)OC)C(C(=O)OC)(C(=O)OC)C(C(=O)OC)=C1C(=O)OC (stereo not given) | 1
CCOC(=O)C#Cc1ccc([N+](=O)[O-])cc1 | 8

stdin: growth inhibition for CC(C)=NOC(=O)Nc1ccc(Cl)cc1 ?
stdout: -18

###

Let's look at some molecules and their measured growth inhibition.
- ASSAY_COMMENT: NCI Yeast Anticancer Drug Screen. Data for the wt2 strain (AID 169);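 also: 0% = growth of vehicle-treated yeast cultures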
- CONDITIONS_USED: S. cerevisiae wt2 strain growth inhibition; at 3.7 µM; hits give high values
- Procedure: Growth inhibition of yeast strains with defined genetic alterations is measured as a screen for potential anti-cancer activity. Selected strains with alterations in DNA damage repair or cell cycle control were exposed to compounds and growth inhibition was measured relative to vehicle treated controls. The strain used in this assay is wt2
About 79,000 compounds went through this panel and 15% of them were active in at least one assay; those are over-represented in the sample as a whole.
Just the number in %, nothing appended.

Known growth inhibition results, listed for orientation:
Cc1nc2ccc(N=NN(C)C)cc2[nH]1 | 4
CCOC(=O)C#Cc1ccc([N+](=O)[O-])cc1 | 1
Oc1ccc(O)c(Cc2ccccc2)c1 | 1
S=c1sc2c(s1)SCCS2 | 2
Oc1ccc(-c2nc(-c3ccc(F)cc3)c(-c3ccc4ccccc4n3)[nH]2)cc1 | -40
CCN(CC)CCNc1ccc2ncn3c4cc(OC)c(OC)c(=O)c4c(O)c1c23 | 0
CNCCCNc1c2ccccc2nc2cccc([N+](=O)[O-])c12 | 23
CCCCCCCCCCCCCCCCOP(=O)(O)OCC(N)C(=O)O (configuration not stated) | -22
CCCC/C=C/C(C)(C(=O)OCC)C(=O)OCC | -4
NCCNCCNc1ccc(NCCNCCN)c2c1C(=O)c1c(O)ccc(O)c1C2=O | -3

stdin: growth inhibition for O=C1C=C(Cl)C(=O)C(c2ccc(Cl)cc2)=C1 ?
stdout: -9

stdin: growth inhibition for Cc1cccc[n+]1C1CCc2c(ccc3ccccc23)C1=O (configuration not stated) ?
stdout: -8

stdin: growth inhibition for CCCCN(CCCC)C(=O)/C=C/c1ccccc1 ?
stdout: -4

stdin: growth inhibition for N#CC(=Nc1ccccc1F)Nc1ccccc1F ?
stdout: -3

stdin: growth inhibition for Cc1cc(C)c(NC(=S)NC(=O)c2ccccc2)cc1C ?
stdout: -49

stdin: growth inhibition for CNC(=O)OCc1c(COC(=O)NC)c2n(c1C)-c1ccc(OC)cc1CCC2 ?
stdout: 9

stdin: growth inhibition for O=C(Oc1ccc2c(c1)CN(Cc1ccccc1)CO2)c1ccccc1 ?
stdout: 3

stdin: growth inhibition for O=C(/C=C\c1cccc(C(F)(F)F)c1)c1ccccc1 ?
stdout: 0

stdin: growth inhibition for CN1C(=O)c2ccc3ccccc3c2C1=O ?
stdout: 3

stdin: growth inhibition for NC(=S)NC(=S)Nc1ccccc1 ?
stdout: 6

stdin: growth inhibition for CC(C)(CCCCC(C)(C)[N+](C)(C)C)[N+](C)(C)C ?
stdout: -2

stdin: growth inhibition for C[Si](C)(C)/C=C/CCNC(C#N)c1ccccc1 (configuration not stated) ?
stdout: -19

stdin: growth inhibition for O=C(/C=C/c1cc(Cl)cc(Cl)c1O)c1cccc(O)c1 ?
stdout: 27
